// provenance: ChEMBL document CHEMBL1157539

- Test system: HepG2
- Assay comment: GSK_TCMDC: Percent inhibition of human HepG2 cell line. Test compounds present at 10uM.
- Format: functional
Documented Inhibition across a set of molecules
Numeric only. Scale: %

Inhibition recorded for this molecule, O=C(O)C(F)(F)F.c1ccc(-c2ccc(CNCc3ccc(-c4cccc(-c5nc6ccccc6[nH]5)c4)cc3)s2)nc1 , is 48

---
Per the record, O=C(Nc1cccc(CN2CCN(Cc3ccc(O)cc3)CC2)c1)c1cc2ccccc2s1.O=C(O)C(F)(F)F has Inhibition of 15

// field: Inhibition; key: COc1cc(CCNCC(O)c2ccc([N+](=O)[O-])c(OCc3ccccc3)c2)cc(OC)c1OC.Cl (centres undefined) ; value = 11

Lab note: Cc1nnc(NC(=O)c2cn(-c3ccccc3)nc2-c2ccccc2C)o1 gave Inhibition of 37

----------
- Tested on: HepG2
- Assay comment: GSK_TCMDC: Percent inhibition of human HepG2 cell line. Test compounds present at 10uM.
- Format: functional
Reported endpoint: Inhibition (%)
Kindly provide the numeric value in % only, without the unit symbol.

molecule O=C(O)C(F)(F)F.c1ccc2[nH]c(-c3ccc(-c4ccc(CN5CCCCC5)cc4)cc3)nc2c1 , Inhibition observed: 27

Measured Inhibition, COc1ccc2c(NN=Cc3ccccc3F)ccnc2c1 : 15

Notebook: Cc1ccccc1N1CCN(c2ncc(C(=O)NC3CC3)cc2Cl)CC1.O=C(O)C(F)(F)F , Inhibition read as 23

CCCCn1c(=N)c(C(=O)NCc2cccnc2)cc2c(=O)n3cccc(C)c3nc21 has a reported Inhibition of 7

Sure, the documented Inhibition for CN(C1CCC(NC(=O)/C=C/c2ccccc2)CC1)C1CC2(CCN(C(=O)OC(C)(C)C)CC2)c2ccccc21 (centres undefined) is 16

Per the records, this molecule ( N#Cc1cccc(C(=O)Nc2ccc(-c3nc4ccccc4[nH]3)cc2)c1 ) has Inhibition equal to 33

For this molecule ( CCNc1cc(C(=O)N[C@@H](Cc2ccccc2)[C@H](O)CNC2CCC(C)(C)C2)cc(N2CCCCS2(=O)=O)c1.Cl (some centres undefined) ), measured Inhibition is 3

Looking up COc1ccccc1CCNc1ncnc2c1[nH]c1ccc(F)cc12 , I see its Inhibition listed as 49

Consider O=C(Nc1ccc(Br)cc1)N(CCN1CCOCC1)CC(O)COCc1ccc(Cl)c(Cl)c1.O=C(O)C(F)(F)F (centres undefined) . Its measured Inhibition is 16

The molecule listed as O=C(Nc1cccc(CN2CCCN(CC3CCCCC3)CC2)c1)c1ccc(Cl)c(Cl)c1.O=C(O)C(F)(F)F has a reported Inhibition of 39

get_value(item= COc1ccc(-c2ccc([N+](=O)[O-])cc2C(=O)NCC(C)Oc2ccc(C(F)(F)F)cc2)cc1 (centres undefined) , readout=Inhibition) returns 6

Record summary for Cc1ccc(CNC(=O)c2cc3c(=O)n4cccc(C)c4nc3n(CCN3CCOCC3)c2=N)cc1 : reported Inhibition = 31

Entry CCN(CC)CCn1c(=N)n(CC(O)c2ccc(Cl)c(Cl)c2)c2ccccc21.Cl (centres undefined) , Inhibition reported as 35

Per the record, COc1ccc2nc3cc(Cl)ccc3c(NCCCCN)c2c1.Cl has Inhibition of 52

Reported Inhibition of CN1CCN(CC(=O)Nc2cccc(-c3ccc(-c4nc5cc(C(F)(F)F)ccc5[nH]4)s3)c2)CC1 : 36

Form field Inhibition, entry COc1ccc(CN2CCN(CC(=O)Nc3cc(Cl)ccc3-n3cncn3)CC2)cc1F : 0
